Each entry below carries its reported inhibition at 20 µM.
- Study target: human JAK2 (Homo sapiens)
- Construct: The kinase domain of human JAK2 was amplified from U937mRNA; His tag (pFastBac HTc vector; nickel chelate purification) (N); made in house; host or cells: baculovirus; Sf9 for virus, High Five insect cells for production
- Sequence (O60674 849-1124 limits assumed): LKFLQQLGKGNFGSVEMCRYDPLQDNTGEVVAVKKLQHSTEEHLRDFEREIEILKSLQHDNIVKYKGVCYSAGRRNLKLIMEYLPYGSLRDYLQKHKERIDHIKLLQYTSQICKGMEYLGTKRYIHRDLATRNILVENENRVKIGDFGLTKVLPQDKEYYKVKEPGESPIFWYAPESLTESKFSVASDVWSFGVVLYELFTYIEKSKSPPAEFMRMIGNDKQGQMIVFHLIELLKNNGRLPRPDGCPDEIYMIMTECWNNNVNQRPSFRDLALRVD
- Experiment notes: JAK kinase assay (ELISA or Alphascreen), Jak2
- Format: biochemical
- Run conditions: standard conditions, read-out: Jak2 inhibition of enzyme activity

{"Compound": "CC(Nc1cncc(-n2cnc3cnccc32)n1)c1ccc(F)cc1 (stereo not drawn)", "inhibition at 20 µM": "≥ 50%"}
{"Compound": "C[C@H](Nc1cncc(-n2cnc3ccc(CN4CCC(O)CC4)cc32)n1)c1ccc(F)cc1", "inhibition at 20 µM": "≥ 50%"}
{"Compound": "Cc1ncc(-n2cnc3ccc(C#N)cc32)nc1N[C@@H](C)c1cccc(F)c1", "inhibition at 20 µM": "≥ 50%"}
{"Compound": "C[C@H](Nc1cncc(-n2cc3ccccc3n2)n1)c1ccc(F)cc1", "inhibition at 20 µM": "< 50%"}
{"Compound": "CC(Nc1cncc(-n2cnc3ccc(C#N)cc32)n1)c1cccc(OC(F)(F)F)c1 (stereo not drawn)", "inhibition at 20 µM": "< 50%"}
{"Compound": "C[C@H](Nc1cncc(-n2cnc3cccnc32)n1)c1ccccc1", "inhibition at 20 µM": "< 50%"}
{"Compound": "C[C@H](Nc1cncc(-n2cnc3ccccc32)n1)c1ccc(F)cc1", "inhibition at 20 µM": "≥ 50%"}
{"Compound": "CC(Nc1cncc(-n2cnc3cc(C#N)ccc32)n1)c1cccc(C(F)(F)F)c1 (stereo not drawn)", "inhibition at 20 µM": "< 50%"}
{"Compound": "CC1CC(Nc2cncc(-n3cnc4ccc(C#N)cc43)n2)c2ccccc21 (stereo not drawn)", "inhibition at 20 µM": "< 50%"}
{"Compound": "C[C@H](Nc1cncc(-n2cnc3cc(C#N)ccc32)n1)c1ccccc1", "inhibition at 20 µM": "≥ 50%"}
{"Compound": "CC(Nc1cncc(-n2cnc3cc(CNCCN(C)C)ccc32)n1)c1ccc(F)cc1 (stereo not drawn)", "inhibition at 20 µM": "< 50%"}
{"Compound": "Nc1ccc(-c2cncc(-n3cnc4ccccc43)n2)cc1", "inhibition at 20 µM": "≥ 50%"}
{"Compound": "CC(Nc1cncc(-n2cnc3ccc(C#N)cc32)n1)c1cccc(C(F)(F)F)c1 (stereo not drawn)", "inhibition at 20 µM": "≥ 50%"}
{"Compound": "CC(Nc1cncc(-n2cnc3cc(C#N)ccc32)n1)c1ccccc1F (stereo not drawn)", "inhibition at 20 µM": "≥ 50%"}
{"Compound": "CC(Nc1cncc(-n2cnc3ccc(C#N)cc32)n1)c1cccc2ccccc12 (stereo not drawn)", "inhibition at 20 µM": "< 50%"}
{"Compound": "CC(Nc1cncc(-n2cnc3cc(C#N)ccc32)n1)c1cccc(OC(F)(F)F)c1 (stereo not drawn)", "inhibition at 20 µM": "< 50%"}
{"Compound": "CC(Nc1cncc(-n2cnc3cc(C#N)ccc32)n1)c1cc(F)cc(F)c1 (stereo not drawn)", "inhibition at 20 µM": "≥ 50%"}
{"Compound": "CC(Nc1cncc(-n2cnc3cc(C#N)ccc32)n1)c1ccccn1 (stereo not drawn)", "inhibition at 20 µM": "≥ 50%"}
{"Compound": "CC(Nc1cncc(-n2cnc3cc(C#N)ccc32)n1)c1ccc(F)c(F)c1 (stereo not drawn)", "inhibition at 20 µM": "≥ 50%"}
{"Compound": "Cc1ccc([C@H](C)Nc2cncc(-n3cnc4ccc(C#N)cc43)n2)cc1", "inhibition at 20 µM": "≥ 50%"}
{"Compound": "c1cncc(-c2cncc(-n3cnc4ccccc43)n2)c1", "inhibition at 20 µM": "≥ 50%"}
